- System: U251 CNS
Recorded measurements of GI50, one per entry

> print(dat)
                                 cpd.smiles  recorded.metric  observed.value
1  O=C(Nc1ccc(S(=O)(=O)Nc2nccs2)cc1)c1cccnc1Nc1cccc(Cl)c1             GI50         13.2 µM

Recorded GI50 of Cn1c(C(N)=O)cc2c1-c1nc(Nc3ccccc3)ncc1CCC2 , please.
3.55 µM

Which measured GI50 value corresponds to Cn1ccnc1C(=O)/C=C/c1ccc(CC(=O)Nc2ccc(Cl)cc2)cc1 ?
1.1 µM

Which GI50 value belongs to Oc1ccc2ccccc2c1C=NCCCN=Cc1c(O)ccc2ccccc12 ?
3.8 µM

Find the recorded GI50 belonging to CN(C)CCNC(=O)c1ccc(Nc2nc3ccccc3c3occc23)cc1 and report it.
2.45 µM

# query: GI50 of entry COc1ccc(C(=O)/C=C/c2ccc(O)c(O)c2F)c(OC)c1
4.12 µM

----------
Quick reference: GI50 of the listed items.
- Test system: NCI-H522 lung
- Test Protocol: NCI tumour cell line growth inhibition, 48 h

Known GI50 results, listed for orientation:
> print(dat)
                                 cpd.smiles  recorded.metric  observed.value
1  CCc1ccc(-c2nnc(COc3ccc(-c4nc5ccc(C)cc5[nH]4)cc3OC)o2)cc1             GI50          3.1 µM
2  COc1ccc(C(=O)/C=C/c2ccc(O)c(O)c2F)c(OC)c1             GI50        0.481 µM

Consider the additional compound presented here.
Return reported GI50; argument: Cn1ccnc1C(=O)/C=C/c1ccc(CC(=O)Nc2ccc(Cl)cc2)cc1
4.85 µM

----------
- Test system: BT-549 breast
- Test Protocol: NCI tumour cell line growth inhibition, 48 h
A collection of compounds and their measured TGI
The response must be a number in µM with no trailing unit.

Below: 2 compounds and their reported TGI.
> print(dat)
                                 cpd.smiles  recorded.metric  observed.value
1  O=[N+]([O-])c1cnc(Sc2ccncn2)c([N+](=O)[O-])c1              TGI            28.9
2  CN(C)CCCNc1c(O)c2c(c(O)c1Cl)C(=O)C=CC2=O              TGI            2.94

Given CN1CCN(Cc2ccc(-c3cc4ncnc(Nc5ccc(OCc6cccc(F)c6)c(Cl)c5)c4s3)o2)CC1 , state its recorded TGI.
8.91

----------
Item-by-item account of GI50
- System: SK-OV-3 ovarian
- Test Protocol: NCI tumour cell line growth inhibition, 48 h

> print(dat)
                                 cpd.smiles  observed.value
1  O=C(Nc1ccc(S(=O)(=O)Nc2nccs2)cc1)c1cccnc1Nc1cccc(Cl)c1         20.8 µM
2         CNc1ccccc1C(=O)N/N=C/C=C/c1ccccc1         4.15 µM
3  COc1cccc(-c2nn(-c3ccccc3)cc2-c2ccnc(NCCNS(=O)(=O)c3ccc(Cl)cc3)c2)c1         4.43 µM

Find the recorded GI50 belonging to O=S(=O)([O-])[O-].[OH3+].[OH3+].[OH3+].[Ru+2].c1ccccc1 and report it.
> 100 µM

# input molecule: Oc1ccc2ccccc2c1C=NCCCN=Cc1c(O)ccc2ccccc12 ; wanted: its GI50
24.8 µM

Find the recorded GI50 belonging to O=[N+]([O-])c1ccc(N2CCN(Cc3ccccc3)CC2)c2c1no[n+]2[O-] and report it.
1.98 µM
